We begin with a simple list: items and their reported inhibition.
Target: UniProt P41597
Sequence (P41597 whole entry, looked up): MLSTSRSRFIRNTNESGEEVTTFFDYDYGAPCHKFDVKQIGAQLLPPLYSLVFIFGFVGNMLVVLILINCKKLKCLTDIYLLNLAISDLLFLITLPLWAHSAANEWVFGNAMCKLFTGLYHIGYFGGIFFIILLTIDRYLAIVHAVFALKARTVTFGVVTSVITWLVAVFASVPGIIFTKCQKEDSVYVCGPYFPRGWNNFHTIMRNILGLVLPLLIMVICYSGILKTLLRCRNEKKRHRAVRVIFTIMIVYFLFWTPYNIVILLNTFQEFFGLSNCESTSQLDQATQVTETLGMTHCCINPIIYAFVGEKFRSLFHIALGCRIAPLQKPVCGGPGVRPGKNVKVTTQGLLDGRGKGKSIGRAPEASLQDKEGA
Assay: Displacement of [125I]-CCL2 from human CCR2 expressed in U2OS cells at 1 uM incubated for 150 mins by scintillation spectrometry
Type: cell-based
Number only, in %; omit the unit.

compound	observedResult
CC1Cc2ccccc2C2(CCN(CCC(C(=O)NCc3cc(C(F)(F)F)cc(C(F)(F)F)c3)c3ccc(F)cc3)CC2)O1 (stereo not given)	0

Query: Provide inhibition, recorded with UniProt P41597, of CC1Cc2ccccc2C2(CCN(CCC(C(=O)NCc3cc(F)cc(C(F)(F)F)c3)c3ccc(F)cc3)CC2)O1 (stereo not given)
Response: 9

Query: Print UniProt P41597 inhibition for O=C(CCCN1CCC2(CC1)OCCc1ccccc12)NCc1cc(F)cc(C(F)(F)F)c1 .
Response: 4

Query: Name the value of inhibition reported for O=C(NCc1cc(C(F)(F)F)cc(C(F)(F)F)c1)C(CCN1CCC2(CC1)OCCc1ccccc12)c1ccc(F)cc1 (stereo not given) when tested on UniProt P41597.
Response: 25

Query: Fill: inhibition (UniProt P41597) for this compound O=C(CCCN1CCC2(CC1)OCCc1ccccc12)NCc1cc(C(F)(F)F)cc(C(F)(F)F)c1
Response: 10

Query: Jot down inhibition (UniProt P41597) of COc1ccc2c(c1)CCOC21CCN(CCCC(=O)NCc2cc(C(F)(F)F)cc(C(F)(F)F)c2)CC1 .
Response: 1

Query: Would you please give the reported inhibition of O=C(NCc1cc(F)cc(C(F)(F)F)c1)C(CCN1CCC2(CC1)OCCc1ccccc12)c1ccc(F)cc1 (stereo not given) with UniProt P41597?
Response: 7

Query: Recall the reported inhibition of COc1ccc2c(c1)CCOC21CCN(CCC(C(=O)NCc2cc(F)cc(C(F)(F)F)c2)c2ccc(F)cc2)CC1 (stereo not given) on UniProt P41597 and write it down.
Response: -7

Query: Fill in inhibition for COc1ccc2c(c1)CCOC21CCN(CCCC(=O)NCc2cc(F)cc(C(F)(F)F)c2)CC1 tested with UniProt P41597.
Response: -1

Query: Quote inhibition with test system UniProt P41597 for CC1Cc2ccccc2C2(CCN(CCCC(=O)NCc3cc(F)cc(C(F)(F)F)c3)CC2)O1 (stereo not given)
Response: -10
